biological target: Gal(a1-3)Gal(b1-4)[Fuc(a1-3)]GlcNAc; experiment: glycan array binding signal (z-score within array); higher = stronger binding; settings: glycan notation: IUPAC condensed, linker removed
About 410 targets per protein were measured; listed, in parts, are those with the strongest signals and a random draw of the rest.

{"columns": ["binder", "glycan array binding signal (z-score)"],
 "data": [
  ["AFL5 (Aspergillus fumigatus), Q4WB00 (protein) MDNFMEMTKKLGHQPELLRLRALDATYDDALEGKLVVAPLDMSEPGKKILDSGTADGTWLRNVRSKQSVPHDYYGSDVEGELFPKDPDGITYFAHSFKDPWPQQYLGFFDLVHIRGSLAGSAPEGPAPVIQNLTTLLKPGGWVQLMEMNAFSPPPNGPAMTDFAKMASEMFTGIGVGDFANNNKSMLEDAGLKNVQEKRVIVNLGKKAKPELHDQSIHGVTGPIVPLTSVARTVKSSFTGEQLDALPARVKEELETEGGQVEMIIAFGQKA", 21.5],
  ["FimA-N2 (Actinomyces oris) (protein) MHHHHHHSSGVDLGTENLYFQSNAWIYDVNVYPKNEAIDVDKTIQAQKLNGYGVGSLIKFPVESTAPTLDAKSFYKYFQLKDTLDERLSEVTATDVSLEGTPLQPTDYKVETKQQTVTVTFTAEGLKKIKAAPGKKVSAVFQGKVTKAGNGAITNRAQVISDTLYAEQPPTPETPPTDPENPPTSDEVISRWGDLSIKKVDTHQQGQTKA", -1.47],
  ["GH98CBM51-1 (Streptococcus pneumoniae) (protein) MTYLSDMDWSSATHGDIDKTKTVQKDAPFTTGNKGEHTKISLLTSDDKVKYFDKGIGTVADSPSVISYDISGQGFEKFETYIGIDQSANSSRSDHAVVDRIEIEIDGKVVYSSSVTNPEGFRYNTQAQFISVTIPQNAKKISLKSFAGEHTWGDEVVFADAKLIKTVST", -0.186],
  ["PA-IL (Pseudomonas aeruginosa) (protein) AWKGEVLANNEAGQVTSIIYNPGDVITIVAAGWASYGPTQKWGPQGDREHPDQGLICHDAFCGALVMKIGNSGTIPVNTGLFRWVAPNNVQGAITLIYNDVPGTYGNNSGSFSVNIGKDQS", 4.11],
  ["LF82 (Escherichia coli) (protein) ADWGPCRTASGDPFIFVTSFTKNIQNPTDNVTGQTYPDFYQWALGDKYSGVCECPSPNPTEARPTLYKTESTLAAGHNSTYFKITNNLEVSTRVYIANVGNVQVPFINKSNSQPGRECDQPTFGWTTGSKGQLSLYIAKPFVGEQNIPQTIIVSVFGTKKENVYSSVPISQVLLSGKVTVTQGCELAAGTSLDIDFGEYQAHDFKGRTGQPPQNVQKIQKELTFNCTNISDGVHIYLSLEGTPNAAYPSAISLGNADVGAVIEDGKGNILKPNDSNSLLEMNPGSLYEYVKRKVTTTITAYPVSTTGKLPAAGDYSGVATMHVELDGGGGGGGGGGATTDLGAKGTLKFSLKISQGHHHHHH", -1.48],
  ["PLU (Photorhabdus luminiscence) (protein) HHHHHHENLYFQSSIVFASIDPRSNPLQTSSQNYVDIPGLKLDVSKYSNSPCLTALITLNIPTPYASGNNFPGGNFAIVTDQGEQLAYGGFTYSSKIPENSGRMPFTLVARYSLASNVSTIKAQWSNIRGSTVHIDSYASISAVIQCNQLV", -0.21]
]}
